molecular target: unrelated Fc-fused recombinant protein; test: ELISA, lysate on plate-bound antigen
observationType: ELISA Fc Control (RSU)
API: value field is a number in RSU; no unit string.

Param item = ISOP194BR9P1H4 (designed binder, not shown: small tags and cut ends, FN3 domain; E. coli lysate in the ELISA) LPAPKNLVVSRVTEDSACLSWTTAFHNEYFDSFLIQYQESEKVGEAIVLTVPGSERSYDLTGLKPGTEYTVSIYGVYSRPKAEFTSNPLSAIFTT ; retrieve measured ELISA Fc Control (RSU).
3040

Same question for ISOP121BR5P1B5 (designed binder, not shown: small tags and cut ends, FN3 domain; E. coli lysate in the ELISA) LPAPKNLVVSRVTEDSARLSWRKQEQYFDSFLIQYQESEKVGEAIVLTVPGSERSYDLTGLKPGTEYTVSIYGVYQRGYHNWFSNPLSAIFTT please.
720

Cool, now ISOP194GR9P1F6 (designed binder, not shown: small tags and cut ends, FN3 domain; E. coli lysate in the ELISA) LPAPKNLVVSRVTEDSARLSWTAPDAAFDSFWIDYWERLSEGEAIALRVPGSERSYDLTGLKPGTEYYVWIVGVKGGKFSQPLRAWFTT
400

Now this one: ISOP194GR9P1E9 (designed binder, not shown: small tags and cut ends, FN3 domain; E. coli lysate in the ELISA) LPAPKNLVVSRVTEDSARLSWTAPDAAFDSFHIRYHEYDKNGEAIQLYVPGSERSYDLTGLKPGTEYGVFIWGVKGGLKSKPLWAWFTT
720

These measurements were taken from patent US20180162928A1.
